# PROTOCOL_DETAILS: fu,PL from membrane affinity to PL-covered silica beads, PE
# Assay type: in vitro ADME
# MEASUREMENT_PARAMETERS: beads coated with pure PE, 15 min incubation; read-out: fu,PE Geomean
Each record's fraction unbound at 15 min is compared with lower segment: < 0.003; middle segment: ≥ 0.003 and < 0.009; upper segment: ≥ 0.009 to give its class.

MOLECULE	GROUP_LABEL
CCOc1cc(CC(=O)N[C@@H](CC(C)C)c2ccccc2N2CCCCC2)ccc1C(=O)O [Repaglinide]	middle segment

GET /class?item= `CCC(C)(C)C(=O)O[C@H]1C[C@@H](C)C=C2C=C[C@H](C)[C@H](CC[C@@H]3C[C@@H](O)CC(=O)O3)[C@H]21`
lower segment

GET /class?item= COC(=O)CCc1ccc(OCC(O)CNC(C)C)cc1 (centres unmarked)
upper segment

GET /class?item= `COc1ccccc1Oc1c(NS(=O)(=O)c2ccc(C(C)(C)C)cc2)nc(-c2ncccn2)nc1OCCO`
lower segment

GET /class?item= `COc1ccc([C@@H]2Sc3ccccc3N(CCN(C)C)C(=O)[C@@H]2OC(C)=O)cc1`
middle segment

GET /class?item= `Nc1ccc(/N=N/c2ccccc2)c(N)n1`
lower segment

GET /class?item= COc1ccc2[nH]c([S+]([O-])Cc3ncc(C)c(OC)c3C)nc2c1 (centres unmarked)
upper segment

GET /class?item= `Cc1cccc(C)c1OCC(=O)N[C@@H](Cc1ccccc1)[C@@H](O)C[C@H](Cc1ccccc1)NC(=O)[C@H](C(C)C)N1CCCNC1=O`
lower segment

GET /class?item= `OC(Cn1cncn1)(Cn1cncn1)c1ccc(F)cc1F`
middle segment

GET /class?item= Cc1ccccc1N1C(=O)c2cc(S(N)(=O)=O)c(Cl)cc2NC1C (centres unmarked)
middle segment

* * *

# PROTOCOL_DETAILS: fu,PL from membrane affinity to PL-covered silica beads, PS
# Format: in vitro ADME
# MEASUREMENT_PARAMETERS: silica beads covered with phosphatidylserine (PS), Transil; beads coated with pure PS, 15 min incubation; read-out: fu,PS Geomean
TEST_READOUT: fraction unbound at 15 min
Numbers only.

Answered cases to consult:
COMPOUND	READOUT_NUMBER
COc1ccccc1Oc1c(NS(=O)(=O)c2ccc(C(C)(C)C)cc2)nc(-c2ncccn2)nc1OCCO	0.0014
CCN(CC)CCCC(C)Nc1c2ccc(Cl)cc2nc2ccc(OC)cc12 (centres unmarked)	0.001
CCOc1cc(CC(=O)N[C@@H](CC(C)C)c2ccccc2N2CCCCC2)ccc1C(=O)O [Repaglinide]	0.0084
Cc1ccccc1N1C(=O)c2cc(S(N)(=O)=O)c(Cl)cc2NC1C (centres unmarked)	0.0093
CC[C@H](C)C(=O)O[C@H]1C[C@@H](C)C=C2C=C[C@H](C)[C@H](CC[C@@H]3C[C@@H](O)CC(=O)O3)[C@H]21	0.0002
CCOc1nc2cccc(C(=O)O)c2n1Cc1ccc(-c2ccccc2-c2nnn[nH]2)cc1	0.0018

Give one value of fraction unbound at 15 min per listed compound.
1. COCCc1ccc(OCC(O)CNC(C)C)cc1 (centres unmarked)
2. COc1ccc2[nH]c([S+]([O-])Cc3ncc(C)c(OC)c3C)nc2c1 (centres unmarked)

1. 0.0081
2. 0.0154
